assay: LTI-291-001 single ascending dose study: plasma pharmacokinetics and food effect; type: in vivo, human; conditions: human, plasma, po, 10 mg, 10 mg fed, single oral dose, geometric mean
property_name: Cmax (ng/mL)
Output spec: scalar in ng/mL, unitless text.

q: Quick one: Cmax of CCCCCO[C@H]1CC[C@H](NC(=O)c2cnn3c(C)cc(C)nc23)CC1 [Compound A] ?
a: 234

* * *

assay: LTI-291-002 multiple ascending dose study: plasma and CSF pharmacokinetics; format: in vivo, human; conditions: human, plasma, oral, 60 mg, 60 mg daily, dose 7, geometric mean; read-out: t½ (converted)
property_name: half-life (h)
Output spec: scalar in h, unitless text.

q: Quick one: half-life of CCCCCO[C@H]1CC[C@H](NC(=O)c2cnn3c(C)cc(C)nc23)CC1 ?
a: 35.8

* * *

test: LTI-291-002 multiple ascending dose study: plasma and CSF pharmacokinetics; assay type: in vivo, human; settings: human, plasma, oral, 30 mg, 30 mg daily, dose 14, geometric mean; read-out: AUC0-24
property_name: AUC(0-t) (ng·h/mL)
Output spec: scalar in ng·h/mL, unitless text.

q: Quick one: AUC(0-t) of CCCCCO[C@H]1CC[C@H](NC(=O)c2cnn3c(C)cc(C)nc23)CC1 ?
a: 26200

* * *

assay: BIA 28-6156-106 mass balance recovery, metabolite profiling and PK of 14C-Compound A; type: in vivo, human; conditions: male, human, plasma; single oral dose of 60 mg 14C BIA-28; read-out: plasma AUC0-inf, geometric mean
property_name: AUC(0-inf) (ng·h/mL)
Output spec: scalar in ng·h/mL, unitless text.

q: Quick one: AUC(0-inf) of CCCCCO[C@H]1CC[C@H](NC(=O)c2cnn3c(C)cc(C)nc23)CC1 [Compound A] ?
a: 42100

* * *

experiment: LTI-291-002 multiple ascending dose study: plasma and CSF pharmacokinetics; type: in vivo, human; conditions: human, plasma, oral, 10 mg, 10 mg daily, dose 1, geometric mean
property_name: Cmax
Quick note: unit goes after the number.

q: Quick one: Cmax of CCCCCO[C@H]1CC[C@H](NC(=O)c2cnn3c(C)cc(C)nc23)CC1 [Compound A] ?
a: 307 ng/mL

* * *

Test: LTI-291-001 single ascending dose study: plasma pharmacokinetics and food effect
Assay type: in vivo, human
Details: human, plasma, po, 3 mg, 3 mg fasted, single oral dose, geometric mean
Method: This study was a first-in-human Phase 1, randomized, double-blind, placebo-controlled, single-ascending dose study to evaluate the safety and tolerability, PK, and PD of escalating single oral doses of Compound A (3, 10, 30, and 90 mg) in 4 cohorts of healthy subjects. […] The effect of food on the PK of Compound A was evaluated by administering a second single oral dose of 10 mg Compound A to the subjects in Cohort 2 on a separate occasion, after subjects had completed a high-fat breakfast. […]
property_name: AUC(0-t) (ng·h/mL)
Output spec: scalar in ng·h/mL, unitless text.

q: Quick one: AUC(0-t) of CCCCCO[C@H]1CC[C@H](NC(=O)c2cnn3c(C)cc(C)nc23)CC1 [Compound A] ?
a: 1560

* * *

assay: LTI-291-002 multiple ascending dose study: plasma and CSF pharmacokinetics; format: in vivo, human; conditions: human, plasma, oral, 30 mg, 30 mg daily, dose 7, geometric mean; read-out: t½ (converted)
property_name: half-life
Quick note: unit goes after the number.

q: Quick one: half-life of CCCCCO[C@H]1CC[C@H](NC(=O)c2cnn3c(C)cc(C)nc23)CC1 ?
a: 25.7 h

Data credit: patent US20260240851A1
